Source of measurements: patent US11884693B2

# test-name: Critical micelle concentration by fluorescence staining using diphenylhexatriene (DPH)
# Type: physicochemical
# condition-set: aqueous solution
Kindly supply the reported CMC (% by weight) values for the records listed here.

Record excerpt, results attached:
Task: What CMC (% by weight) value was documented for this compound, CCCCCCCCCCCCO[C@@H]1O[C@H](CO)[C@@H](O[C@H]2O[C@H](CO)[C@@H](O)[C@H](O)[C@H]2O)[C@H](O)[C@H]1O [DDM, n-dodecyl-β-D-maltopyranoside, reference compound] ?
Output: 0.0087 % by weight

Task: Item CCCCCCCCCCC(CCCCCCCCCC)(COC1OC(CO)C(O)C(O)C1O)C(CCOC1OC(CO)C(O)C(O)C1O)OC1OC(CO)C(O)C(O)C1O (mixture of isomers) has what recorded CMC (% by weight)?
Output: ~0.0017 % by weight

Task: Please report the recorded CMC (% by weight) for CCCCCCCCCCCC(CCCCCCCCCCC)(COC1OC(CO)C(O)C(O)C1O)C(CCOC1OC(CO)C(O)C(O)C1O)OC1OC(CO)C(O)C(O)C1O (mixture of isomers) .
Output: ~0.0013 % by weight

Look at each compound and report its CMC (% by weight).
1. CCCCCCCCCCCCC(CCCCCCCCCCCC)(COC1OC(CO)C(O)C(O)C1O)C(CCOC1OC(CO)C(O)C(O)C1O)OC1OC(CO)C(O)C(O)C1O (mixture of isomers)
2. CCCCCCCCCCCCC(COC1OC(CO)C(O)C(O)C1O)C(OC1OC(CO)C(O)C(O)C1O)C(CCCCCCCCCCCC)COC1OC(CO)C(O)C(O)C1O (mixture of isomers)

Output:
1: ~0.0011 % by weight; 2: ~0.0007 % by weight
